Test system: RXF 393 renal
assayComment: NCI tumour cell line growth inhibition, 48 h
experimentalEndpoint: TGI (µM)
Give just the number in µM; leave the unit off.

In the examples that follow, each entry is paired with its recorded TGI.
O=C1Nc2ccccc2/C1=C\c1c(Cl)nc2n1CCS2	57.3
CC[C@H]1C=CCC[C@@]2(C[C@@H]3CC[C@@H]4[C@H](C(=O)OCCCCCCCCCCCCCCCC(=O)N(CCCNC(C)=O)C[C@H](CCNC(C)=O)OC(C)=O)[C@]5(CCC[C@@H](C)O5)NC(=[N+]34)N2)O1	1.02
O=Nc1c(O)c2ccccc2c2ccccc12	3.23

*Q* What value of TGI has been recorded for this entry: CC(=O)C1=C(C)N(c2ccccc2)C2(O)C=CC(=O)C3=C(O)c4ccccc4C(=O)C312 (centres undefined)
*A* 36.6
